Tested on: NF-κB pathway
Assay: TNF-α assay (THP-1 cells differentiated to macrophages with IFN-γ, NF-κB pathway activated with LPS; ELISA)
Assay type: cell-based, Human
Details: Homo sapiens, THP-1, THP-1 macrophages, compound 30 min, 50 ng/mL LPS 3 hours
Recorded IC50 by entry

For orientation, consider the following solved cases.
compound=Cc1cc(C)c(-n2cc3sc(NC4CCN(CC(F)F)CC4)nc3n2)c(O)c1 assay_target="NF-κB pathway" observed_property=IC50 value_reported="> 10 µM"
compound="Cc1cc(C)c(-n2cc3sc(NC4CCCC(O)C4)nc3n2)c(O)c1 (stereo not drawn)" assay_target="NF-κB pathway" observed_property=IC50 value_reported="> 10 µM"
compound="Cc1cc(C)c(-n2cc3sc(NC4CCN(C)C4)nc3n2)c(O)c1 (stereo not drawn)" assay_target="NF-κB pathway" observed_property=IC50 value_reported="> 30 µM"

// query Data request, read-out IC50, for Cc1cc(C)c(-n2cc3sc(N[C@@H]4CCCN(C5CCOC5)C4)nc3n2)c(O)c1 (single isomer, unassigned)
// result > 30 µM
